test system: ACHN renal; experiment: NCI tumour cell line growth inhibition, 48 h; in the data active = GI50 below about 0.43 µM; inactive = the rest
Possible outcomes: active, inactive

COMPOUND	CLASS
CCc1ccc(CCC(=O)Nc2ncc(Cc3ccccc3)s2)o1	inactive
CCS(=O)(=O)c1ccc(OC)c(Nc2nccc(N(C)c3ccc4c(C)[nH]nc4c3)n2)c1	inactive
Cc1ccc(NC2=C(Sc3ccc(Cl)cc3)C(=O)N(Cc3ccccc3)C2=O)cc1Cl	inactive
CCC(C)/C=C(C)/C=C/C(=O)c1c(O)c(-c2ccc(O)cc2)c[nH]c1=O (stereo not given)	inactive
COc1cc2cnc3c(c2cc1OC)Cc1cc2c(cc1-3)OCO2	active

====

system: DU-145 prostate; experiment: NCI tumour cell line growth inhibition, 48 h

COMPOUND	TGI
O=C(COC(=O)c1ccccc1)c1ccc(Br)cc1	64.6 µM
CNC1NC(=O)c2ccccc2N1Cc1ccc(F)cc1 (stereo unspecified)	> 100 µM
CCOc1cc2ncc(C#N)c(Nc3ccc(F)c(Cl)c3)c2cc1NC(=O)/C=C/CN(C)C	1.62 µM
CN(C)CCCNC(=O)CNC(=O)c1cc(NC(=O)c2cc(NC(=O)c3cc(NC(=O)CCNC(=O)c4cc(NC(=O)c5cc(NC(=O)c6nccn6C)cn5C)cn4C)cn3C)cn2C)cn1C	> 100 µM
CCS(=O)(=O)c1ccc(OC)c(Nc2nccc(N(C)c3ccc4c(C)[nH]nc4c3)n2)c1	> 25 µM
c1ccc(-c2cc(-c3cc(-c4ccccc4)n[nH]3)[nH]n2)cc1	> 100 µM
Cc1cc(S(N)(=O)=O)c(S/C(=N\Nc2ccc([N+](=O)[O-])cc2)c2ccc(Cl)cc2)cc1Cl	5.51 µM
O/N=C1\CC2(N3CCOCC3)CCC1(Cc1ccccc1)CC2	> 100 µM
CCOC(=O)C1(Cc2ccccc2)CCN(C(=O)c2ccccc2)C2C1C2(Cl)Cl (stereo unspecified)	> 100 µM
CSc1nc(-c2cc3c(c(SC)n2)CCC3)cc2c1CCC2	> 100 µM
CC(=O)Oc1cccc2c1C(=O)C(Br)(Br)CCC2	26.6 µM
O=C(Nc1cc(Cl)ccc1O)c1cccc(NC2=C(Cl)C(=O)N(Cc3ccccc3)C2=O)c1	> 100 µM
O=C(CNC(=O)c1cccc2ccccc12)Nc1ccccc1Oc1ccccc1	> 10 µM
COc1ccc(NC(C)=O)c(C(=O)CCNC(C)=O)c1	> 100 µM
Cn1c2c(c3ccccc31)CC(=O)N1CCCCC1C21OCCO1 (stereo unspecified)	> 100 µM
COc1cc2c(OC)c(c1)CCCC1=CC(=O)C=C(CCC2)C1=O	> 100 µM
Cc1ccc(-c2c(C#N)c(S)n(NS(=O)(=O)c3ccccc3)c(=O)c2C#N)cc1	> 100 µM
OCC1CCCCN1Cc1nc2ccc(Cl)cc2[nH]1 (stereo unspecified)	> 100 µM
COc1cc2cnc3c(c2cc1OC)Cc1cc2c(cc1-3)OCO2	> 54.1 µM
CCc1nc2ccc(Cc3ccc(C(=O)NO)cc3)cc2c(=O)n1CCc1ccccc1	7.81 µM
CCO[C@H]1C[C@@H](c2ccccc2)[C@]2(C)C[C@H](C(=O)OC)ON2O1	> 100 µM
